Exercise: for every item that follows, state its recorded protein stability index.
B1: TCEB3B (parent)
chain: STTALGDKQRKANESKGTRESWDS

# Variants of: B1
# ASSAY_REMARKS: protein stability index of a GFP-peptide fusion (GPS, HEK-293T) (PSI 1-6); higher = more stable;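 also: lentivirally expressed fusions sorted by FACS into six bins by GFP to DsRed ratio, PSI derived from sequencing read proportions per bin multiplied by bin number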
# MEASUREMENT_PARAMETERS: c terminus: a fixed tail appended
Numbers only.

Example variants with recorded protein stability index:
Give its protein stability index value. Item: `S24Q`
3.84

Give its protein stability index value. Item: `L5M`
3.88

Give its protein stability index value. Item: `D7C`
3.57

Give its protein stability index value. Item: `S15N`
4.24

Give its protein stability index value. Item: `E14R`
3.61

Give its protein stability index value. Item: `S21H`
5.02

Give its protein stability index value. Item: `S15R`
3.65

Give its protein stability index value. Item: `K8E`
4.1

Provide the reported protein stability index of each entry below, same order.
1. S24A
2. E20S
3. G17C

4.38
4.88
3.8
